// provenance: paper PMC4055595

Target: human MDR1-encoded P-gp (L-MDR1 cells) (Homo sapiens, UniProt P08183)
Sequence (P08183 whole entry): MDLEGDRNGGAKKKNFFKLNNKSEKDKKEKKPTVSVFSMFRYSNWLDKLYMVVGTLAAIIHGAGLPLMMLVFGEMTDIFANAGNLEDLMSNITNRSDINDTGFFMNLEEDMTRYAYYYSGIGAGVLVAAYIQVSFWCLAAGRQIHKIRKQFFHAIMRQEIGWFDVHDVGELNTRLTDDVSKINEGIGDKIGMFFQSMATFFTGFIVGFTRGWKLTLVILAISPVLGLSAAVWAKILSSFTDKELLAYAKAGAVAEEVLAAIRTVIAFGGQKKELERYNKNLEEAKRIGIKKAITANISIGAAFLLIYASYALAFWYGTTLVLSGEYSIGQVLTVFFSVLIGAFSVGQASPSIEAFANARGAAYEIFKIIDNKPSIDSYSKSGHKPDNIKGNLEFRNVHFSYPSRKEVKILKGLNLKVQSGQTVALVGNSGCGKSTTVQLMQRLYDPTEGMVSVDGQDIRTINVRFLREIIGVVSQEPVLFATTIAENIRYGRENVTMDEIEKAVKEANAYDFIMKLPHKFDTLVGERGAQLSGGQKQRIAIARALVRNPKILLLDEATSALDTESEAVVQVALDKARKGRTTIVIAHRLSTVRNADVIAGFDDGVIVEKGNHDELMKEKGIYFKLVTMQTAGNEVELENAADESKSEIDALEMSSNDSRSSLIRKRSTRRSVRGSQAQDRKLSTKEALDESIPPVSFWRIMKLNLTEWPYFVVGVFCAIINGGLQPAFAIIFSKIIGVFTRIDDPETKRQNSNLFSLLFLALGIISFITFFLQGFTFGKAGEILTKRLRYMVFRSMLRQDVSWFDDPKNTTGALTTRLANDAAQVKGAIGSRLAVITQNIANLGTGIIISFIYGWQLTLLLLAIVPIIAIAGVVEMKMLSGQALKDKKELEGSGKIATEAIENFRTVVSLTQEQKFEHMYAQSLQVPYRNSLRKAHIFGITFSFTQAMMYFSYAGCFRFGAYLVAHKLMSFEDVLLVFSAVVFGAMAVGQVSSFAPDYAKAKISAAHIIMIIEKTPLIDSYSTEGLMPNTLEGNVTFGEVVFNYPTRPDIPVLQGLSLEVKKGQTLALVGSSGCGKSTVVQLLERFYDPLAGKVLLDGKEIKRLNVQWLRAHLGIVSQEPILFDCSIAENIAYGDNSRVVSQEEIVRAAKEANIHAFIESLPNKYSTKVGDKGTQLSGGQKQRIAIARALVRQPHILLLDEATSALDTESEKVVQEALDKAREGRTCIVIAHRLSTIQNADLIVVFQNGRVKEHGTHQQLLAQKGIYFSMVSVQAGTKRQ
Test: Uptake (intracellular concentration) of digoxin and ginsenosides in L-MDR1 cells
Type: in vitro ADME
Details: 10.0 µg/mL SLE
Description: LLC-PK1 cells, a cell line lacking P-gp, and the derived cell line L-MDR1, which over-express human MDR1-encoded P-gp, were grown in minimum essential medium with supplements at 37°C, 5% CO2, and 95% humidity. […] Transepithelial resistance was measured in each well using a Millicell ERS ohmmeter (Millipore, Bedford, MA); wells registering a resistance of 200 ohms or greater, after correcting for the resistance obtained in control blank wells, were used in the transport experiments. […]
So I've got a bunch of compounds here, and I need their Increase of intracellular concentration by SLE values.
Output spec: scalar in fold, unitless text.

## Input Request the reported Increase of intracellular concentration by SLE associated with CC(C)=CCC[C@](C)(O)[C@H]1CC[C@]2(C)[C@@H]1[C@H](O)C[C@@H]1[C@@]3(C)CC[C@H](O)C(C)(C)[C@@H]3[C@@H](O[C@@H]3O[C@H](CO)[C@@H](O)[C@H](O)[C@H]3O[C@@H]3O[C@@H](C)[C@H](O)[C@@H](O)[C@H]3O)C[C@]12C [Rg2, ginsenoside Rg2]
## Output 2.1

## Input Request the reported Increase of intracellular concentration by SLE associated with CC(C)=CCC[C@](C)(O[C@@H]1O[C@H](CO[C@@H]2O[C@@H](CO)[C@H](O)[C@H]2O)[C@@H](O)[C@H](O)[C@H]1O)[C@H]1CC[C@]2(C)[C@@H]1[C@H](O)C[C@@H]1[C@@]3(C)CC[C@H](O[C@@H]4O[C@H](CO)[C@@H](O)[C@H](O)[C@H]4O[C@@H]4O[C@H](CO)[C@@H](O)[C@H](O)[C@H]4O)C(C)(C)[C@@H]3CC[C@]12C [Rc, ginsenoside Rc]
## Output 3.5

## Input Request the reported Increase of intracellular concentration by SLE associated with CC(C)=CCC[C@](C)(O)[C@H]1CC[C@]2(C)[C@@H]1[C@H](O)C[C@@H]1[C@@]3(C)CC[C@H](O[C@@H]4O[C@H](CO)[C@@H](O)[C@H](O)[C@H]4O[C@@H]4O[C@H](CO)[C@@H](O)[C@H](O)[C@H]4O)C(C)(C)[C@@H]3CC[C@]12C [Rg3, ginsenoside Rg3]
## Output 2.9

## Input Request the reported Increase of intracellular concentration by SLE associated with C[C@H]1O[C@@H](O[C@H]2[C@@H](O)C[C@H](O[C@H]3[C@@H](O)C[C@H](O[C@H]4CC[C@@]5(C)[C@H](CC[C@@H]6[C@@H]5C[C@@H](O)[C@]5(C)[C@@H](C7=CC(=O)OC7)CC[C@]65O)C4)O[C@@H]3C)O[C@@H]2C)C[C@H](O)[C@@H]1O [Digoxin, digoxin, reference compound]
## Output 3.6

###

Assay: Rat plasma pharmacokinetics after single-dose vehicle/SLE and digoxin or GE
Format: in vivo, Sprague-Dawley rats
Conditions: female, Sprague-Dawley, rat, plasma, po, rats, control: single vehicle, 2 h later digoxin 0.5 mg/kg or GE 120 mg/kg ig
measurement-name: AUC (ng·h/mL)
Output spec: scalar in ng·h/mL, unitless text.

## Input Request the reported AUC associated with CC(C)=CCC[C@](C)(O[C@@H]1O[C@H](CO[C@@H]2O[C@H](CO)[C@@H](O)[C@H](O)[C@H]2O)[C@@H](O)[C@H](O)[C@H]1O)[C@H]1CC[C@]2(C)[C@@H]1[C@H](O)C[C@@H]1[C@@]3(C)CC[C@H](O[C@@H]4O[C@H](CO)[C@@H](O)[C@H](O)[C@H]4O[C@@H]4O[C@H](CO)[C@@H](O)[C@H](O)[C@H]4O)C(C)(C)[C@@H]3CC[C@]12C [Rb1, ginsenoside Rb1]
## Output 14300
